- Tested system: gamma secretase (Homo sapiens)
- Construct: HEK293 cells stably expressing full length Amyloid Precursor Protein (APP); endogenous in cells
- Assay info: GSM cell-based assay: Aβ 42 inhibition or reduction in HEK 293 cells over-expressing APP (sandwich ELISA)
- Condition details: approximate IC50; HEK293 cells stably expressing full length APP, 24 hours incubation, 10-point dose response starting at 10 μM
pIC50: −log10 of the molar value.
Would you mind labelling by pIC50? At or over 6 is Condition met, under is Condition not met.

Compound: Cc1cc(-c2ccc(NC(=O)C(CC(C)C)c3cccc(S(C)(=O)=O)c3)cc2)ccn1 (stereo not drawn)
Class assignment: Condition not met

## Task Could you verify whether the entry Cc1cc(-c2ccc(NC(=O)C(CCF)c3cccc(Br)c3)cc2)ccn1 (stereo not drawn) shows pIC50 of no less than 6?
## Result Condition not met

## Task Could you verify whether the entry Cc1cc(-c2ccc(NC(=O)Cc3ccc4oc(-c5ccncc5)nc4c3)cc2)ccn1 shows pIC50 of no less than 6?
## Result Condition not met

## Task Could you verify whether the entry Cc1cc(-c2ccc(NC(=O)Cc3ccc4c(c3)OCO4)cc2)ccn1 shows pIC50 of no less than 6?
## Result Condition met

* * *

- Tested system: gamma secretase (Homo sapiens, UniProt P49768)
- Construct: HEK293 cells stably expressing full length Amyloid Precursor Protein (APP); endogenous in cells
- Assay info: GSM cell-based assay: Aβ 42 inhibition or reduction in HEK 293 cells over-expressing APP (sandwich ELISA)
- Condition details: approximate IC50; HEK293 cells stably expressing full length APP, 24 hours incubation, 10-point dose response starting at 10 μM
- Description: GSM cell-based assays were designed to measure the modulation of Aβ 42 from HEK 293 cells over-expressing APP. Three simultaneous cell-based assays, namely Aβ 42 inhibition or reduction, Aβ 40 inhibition or reduction and a measurement of cell viability of the cells from which the Aβ 42/40 readout was obtained, together gave an interpretation of gamma secretase modulation (GSM). The assays measure Aβ 42 and Ab 40 from conditioned medium of test compound treated HEK 293 cells. […]
Readout name: IC50 (µM)
Note: unit µM is implicit; provide only the numeric part.

Molecule: CCC(C(=O)Nc1ccc(-c2ccnc(C)c2)cc1)c1cccc(C)c1 (stereo not shown) [Cpd 200]
Data value: 1.05
--
Molecule: Cc1cc(-c2ccc(NC(=O)[C@H](CC(C)C)c3cc(F)cc(F)c3)cc2)ccn1 [Cpd 190]
Data value: 0.349

As a next step, examine the molecule that follows.
## Task # return recorded IC50 for input Cc1cc(-c2ccc(NC(=O)C3(c4ccc(Cl)cc4Cl)CC3)cc2)ccn1 [Cpd 332]
## Result 1.17

* * *

Listing: pIC50 of selected compounds
- Tested system: gamma secretase (Homo sapiens)
- Construct: HEK293 cells stably expressing full length Amyloid Precursor Protein (APP); endogenous in cells
- Assay info: GSM cell-based assay: Aβ 42 inhibition or reduction in HEK 293 cells over-expressing APP (sandwich ELISA)
- Condition details: approximate IC50; HEK293 cells stably expressing full length APP, 24 hours incubation, 10-point dose response starting at 10 μM
Convention used: pIC50 is expressed as -log10 of the molar concentration.

Compound: Cc1cc(-c2ccc(NC(=O)c3cccc(Oc4ccccc4)c3)cc2)ccn1
Tested system: gamma secretase (Homo sapiens)
pIC50: 6.07

## Task # return recorded pIC50 for input CCCC(C(=O)Nc1ccc(-c2ccnc(C)c2)cc1)c1ccccc1 (stereo not drawn)
## Result 5.58

## Task # return recorded pIC50 for input Cc1cc(-c2ccc(NC(=O)C(C)c3cccc(-c4ccc(OC(F)(F)F)cc4)c3)cc2)ccn1 (stereo not drawn)
## Result 5.85

## Task # return recorded pIC50 for input Cc1cc(-c2ccc(NC(=O)c3cc4ccccc4n3C)cc2)ccn1
## Result 5.26
